# Tested on: 926638-142-R-J1-PDC complex spheroid viability;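 also: spheroids exposed to drugs for one week before readout; percent viability relative to DMSO vehicle control wells set as 100%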
# protocol: Anticancer human tumor 926638-142-R-J1-PDC patient-derived endometrial carcinoma cell line growth inhibition [POLQ]
# cond: second compound 0.1 µM; first compound 3.16 µM; active compounds read low
# Protocol: Multicellular complex tumor spheroid response to Polymerase (POL) inhibitors (novobiocin, ART-558, RP6685) in combination with a variety of drugs and investigational agents in selected tumor cell lines The POL inhibitors (novobiocin, ART-558, and RP6685) were evaluated both individually and in combination with standard of care and investigational anticancer small molecules within a complex spheroid model of solid tumors. . […]
value.kind: viability, T/C (%)
Numbers only; they are read as %.

Input: Record request: viability, T/C value, item C#Cc1c(F)ccc2cc(O)cc(-c3ncc4c(N5CC6CCC(C5)N6)nc(OCC56CCCN5CC(F)C6)nc4c3F)c12 (centres undefined) + Nc1ccc(C#CCN(C(=O)Cc2ncc(C(F)(F)F)cc2C(F)(F)F)c2ccc(F)cc2)nn1
Output: 75.9

Input: Do the same for CCc1cc2c(N3CCc4c(cc(Cn5ccnc5)cc4-c4cn(C)nc4C(F)(F)F)C3=O)ccnc2c(OC)n1 + COC1C(OC(N)=O)C(O)C(Oc2ccc3c(O)c(NC(=O)c4ccc(O)c(CC=C(C)C)c4)c(=O)oc3c2C)OC1(C)C please
Output: 25.8

Input: Do the same for CCc1cc2c(N3CCc4c(cc(Cn5ccnc5)cc4-c4cn(C)nc4C(F)(F)F)C3=O)ccnc2c(OC)n1 + Cc1cccc(N(C)C(=O)C2C(O)CCN2c2nc(C)cc(C(F)(F)F)c2C#N)c1 please
Output: 41.8

Input: Do the same for COc1cccc2c1C(=O)c1c(O)c3c(c(O)c1C2=O)CC(O)(C(=O)CO)CC3OC1CC(N)C(O)C(C)O1 (centres undefined) + Cc1cccc(N(C)C(=O)C2C(O)CCN2c2nc(C)cc(C(F)(F)F)c2C#N)c1 please
Output: 0.2

Input: Do the same for CC1COCCN1c1cc(C2(O)CC3CCC(C2)O3)c2cnn(-c3ccn[nH]3)c2n1 (centres undefined) + Cc1cccc(N(C)C(=O)C2C(O)CCN2c2nc(C)cc(C(F)(F)F)c2C#N)c1 please
Output: 6.79

Input: Do the same for CC1COCCN1c1cc(C2(O)CC3CCC(C2)O3)c2cnn(-c3ccn[nH]3)c2n1 (centres undefined) + COC1C(OC(N)=O)C(O)C(Oc2ccc3c(O)c(NC(=O)c4ccc(O)c(CC=C(C)C)c4)c(=O)oc3c2C)OC1(C)C please
Output: 6.56

Input: Do the same for COc1cccc2c1C(=O)c1c(O)c3c(c(O)c1C2=O)CC(O)(C(=O)CO)CC3OC1CC(N)C(O)C(C)O1 (centres undefined) + Nc1ccc(C#CCN(C(=O)Cc2ncc(C(F)(F)F)cc2C(F)(F)F)c2ccc(F)cc2)nn1 please
Output: 0.22

Input: Do the same for CC1COCCN1c1cc(-c2ccnn2C)c2ccnc(-c3ccn[nH]3)c2n1 (centres undefined) + Nc1ccc(C#CCN(C(=O)Cc2ncc(C(F)(F)F)cc2C(F)(F)F)c2ccc(F)cc2)nn1 please
Output: 14.1

Input: Do the same for CCc1cc2c(N3CCc4c(cc(Cn5ccnc5)cc4-c4cn(C)nc4C(F)(F)F)C3=O)cc(C)nc2c(OC)n1 + COC1C(OC(N)=O)C(O)C(Oc2ccc3c(O)c(NC(=O)c4ccc(O)c(CC=C(C)C)c4)c(=O)oc3c2C)OC1(C)C please
Output: 26
